- System: Setaria faberi
- measurement-protocol: Glasshouse assay for herbicidal activity, post-emergence, SETFA
- Format: in vivo
- experimental-parameters: Setaria faberi, 312 h, 30 g/ha, visual 13 days after application, 100%=total damage, read-out: Percentage phytotoxicity SETFA
Measured pest or weed control at 30 g/ha, listed per entry.

compound	pest or weed control at 30 g/ha / %
CC#Cc1ccc(C2C(=O)C3CCC(C3)C2=O)c(OC(F)F)c1 (stereo not drawn) [Compound A5]	60
CC#Cc1ccc(C2C(=O)C3CCC(C3)C2=O)c(OCC(F)(F)F)c1 (stereo not drawn) [Compound A4]	40
CC#Cc1ccc(C2C(=O)CC(CCSC)CC2=O)c(OC)c1 (stereo not drawn) [Compound A9]	80
CC#Cc1ccc(C2C(=O)C3CCC(C3)C2=O)c(OC)c1 (stereo not drawn) [Compound A1]	90
CC#Cc1ccc(C2C(=O)C3CCC(C3)C2=O)c(OCCOC)c1 (stereo not drawn) [Compound A15]	50
CC#Cc1cc(OC)c(C2C(=O)CCCC2=O)c(OC)c1 [Compound A11]	100
CC#Cc1cc(OC)c(C2C(=O)C3CCC(C3)C2=O)c(OC)c1 (stereo not drawn) [Compound A7]	100
CC#Cc1ccc(C2C(=O)CC3(CCOCC3)CC2=O)c(OC)c1 [Compound A12]	100
CC#Cc1ccc(C2C(=O)CCCC2=O)c(OC)c1 [Compound A10]	60
CC#Cc1cc(OC)c(C2C(=O)C3CCC(C3)C2=O)c(C(F)(F)F)c1 (stereo not drawn) [Compound A3]	70
CC#Cc1ccc(C2C(=O)C3CCC(C3)C2=O)c(OCCC)c1 (stereo not drawn) [Compound A6]	10
CC#Cc1ccc(C2C(=O)C3CCC(C3)C2=O)c(OCC)c1 (stereo not drawn) [Compound A14]	50
